Provide the reported pIC50 of each item.
Assayed target: Type-1 angiotensin II receptor (Homo sapiens)
Sequence (P30556 whole entry): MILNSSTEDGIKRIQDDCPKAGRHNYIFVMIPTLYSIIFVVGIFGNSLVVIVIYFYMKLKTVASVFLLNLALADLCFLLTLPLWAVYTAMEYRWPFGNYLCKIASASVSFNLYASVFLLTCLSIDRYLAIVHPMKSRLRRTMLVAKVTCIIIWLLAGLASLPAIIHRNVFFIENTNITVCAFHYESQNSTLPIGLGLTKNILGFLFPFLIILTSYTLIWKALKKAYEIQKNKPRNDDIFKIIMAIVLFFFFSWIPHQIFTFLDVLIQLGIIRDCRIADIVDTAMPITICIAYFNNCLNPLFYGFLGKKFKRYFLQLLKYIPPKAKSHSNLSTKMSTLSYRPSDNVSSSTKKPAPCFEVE
Give bare numbers, as −log10 of the molar value.

smiles_representation=CCCc1nc2c(C)cc(C(=O)NCCc3ccc(F)cc3)cc2n1Cc1ccc(-c2ccccc2C(=O)O)cc1 readout_value=6.70

Go through the items and report each one's pIC50.
1. CCCc1nc2c(C)cc(C(=O)NCc3ccc(OC)c(OC)c3)cc2n1Cc1ccc(-c2ccccc2C(=O)O)cc1
2. CCCc1nc2c(C)cc(C(=O)NCc3ccccc3)cc2n1Cc1ccc(-c2ccccc2C(=O)O)cc1
3. CCCc1nc2c(C)cc(C(=O)NCc3ccccc3OC)cc2n1Cc1ccc(-c2ccccc2C(=O)O)cc1

OUTPUT:
[7.51, 7.28, 8.62]

Go through the items and report each one's pIC50.
1. CCCc1nc2c(C)cc(C(=O)NCCc3cc(OC)ccc3OC)cc2n1Cc1ccc(-c2ccccc2C(=O)O)cc1
2. CCCc1nc2c(C)cc(C(=O)NCCc3ccccc3F)cc2n1Cc1ccc(-c2ccccc2C(=O)O)cc1
3. CCCc1nc2c(C)cc(C(=O)NCCc3ccc(OC)cc3)cc2n1Cc1ccc(-c2ccccc2C(=O)O)cc1
4. CCCc1nc2c(C)cc(C(=O)NCc3ccc(OC)cc3)cc2n1Cc1ccc(-c2ccccc2C(=O)O)cc1

OUTPUT:
8.89
6.97
6.67
8.37
